target.entity: T1, His-tagged CEACAM1 (human, UniProt P13688 35-428)
T1 construct: 45 kDa SPR analyte; also called CEACAM1-HIS; CEACAM1 analyte
T1 sequence: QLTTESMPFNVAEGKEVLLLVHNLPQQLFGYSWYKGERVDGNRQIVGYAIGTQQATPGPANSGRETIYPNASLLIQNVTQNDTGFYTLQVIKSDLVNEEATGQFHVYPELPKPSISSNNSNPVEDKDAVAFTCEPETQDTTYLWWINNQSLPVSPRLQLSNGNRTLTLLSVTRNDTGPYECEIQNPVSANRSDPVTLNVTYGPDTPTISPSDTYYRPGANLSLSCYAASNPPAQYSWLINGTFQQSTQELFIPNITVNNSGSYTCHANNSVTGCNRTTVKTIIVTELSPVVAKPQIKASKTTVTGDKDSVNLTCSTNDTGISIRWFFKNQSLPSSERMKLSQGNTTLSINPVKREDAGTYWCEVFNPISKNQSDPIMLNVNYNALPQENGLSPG
test: SPR multi-cycle, IgG captured
parameter: kon (M⁻¹ s⁻¹)

>>> experimental_value("VH1/Vκ9 (antibody, IgG4, V domains shown, IgG4 (S241P), kappa) VH: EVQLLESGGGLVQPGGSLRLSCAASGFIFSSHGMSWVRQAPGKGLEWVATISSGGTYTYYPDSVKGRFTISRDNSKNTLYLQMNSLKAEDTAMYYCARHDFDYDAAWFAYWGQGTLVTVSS VL: EIVLTQSPATLSLSPGERATLSCRANSSVSYMYWYQQKPGQAPRPLIYLTSNRATGVPARFSGSGSGTDYTLTISSLEPEDFATYYCQQWSSNPPTFGQGTKLEIK")
229000
